System: ENR+CD organoids (ISC to Paneth cell differentiation)
test.protocol: Primary screen: basal (non-stimulated) lysozyme secretion LYZ.NS, 2.5-D 384-well ENR+CD organoid differentiation
Type: cell-based, mouse
condition.description: primary screen, dose 0.40 uM, standard z score
Text: High-throughput screening.
Where a name gives a salt, the structure may show the parent alone.
Response key: Met means Z.LYZ.NS >= 0.4; Not met means Z.LYZ.NS < 0.4.

- CC(C)(C)c1cc(NC(=O)Nc2ccc(-c3cn4c(n3)sc3cc(OCCN5CCOCC5)ccc34)cc2)no1 [Quizartinib (AC220)]: Not met
- C[C@H](NCc1ccc(OCc2cccc(F)c2)cc1)C(N)=O [Safinamide Mesylate, reference compound]: Met
- Cc1nnc(C(=O)NC(C)(C)c2nc(C(=O)NCc3ccc(F)cc3)c(O)c(=O)n2C)o1 [Raltegravir (MK-0518)]: Not met
- CC(C)CC(=O)Nc1[nH]nc2c1CN(C(=O)C1CCN(C)CC1)C2(C)C [PHA-793887]: Not met
- O=[N+]([O-])C=Cc1ccc2c(c1)OCO2: Not met
- CNC(=O)c1ccc2cc([C@@]3(O)CCn4cncc43)ccc2c1 [TAK-700 (Orteronel)]: Met
- Nc1ccc(C(=O)[O-])c(O)c1.[Na+] [Sodium 4-Aminosalicylate]: Not met
- O=C(NC[C@H]1CN(c2ccc(N3CCOCC3=O)cc2)C(=O)O1)c1ccc(Cl)s1 [Rivaroxaban]: Not met
- O=C(NCCN1CCOCC1)c1ccc(Cl)cc1 [Moclobemide (Ro 111163)]: Met
- Cc1[nH]c(/C=C2\C(=O)Nc3ccc(S(=O)(=O)N(C)c4cccc(Cl)c4)cc32)c(C)c1C(=O)N1CCN(C)CC1 [SU11274]: Met
- O=C(NC(Cc1cc(=O)[nH]c2ccccc12)C(=O)O)c1ccc(Cl)cc1 (stereo not drawn) [Rebamipide]: Not met
- CC(C)C[C@H](NC(=O)CNC(=O)c1cc(Cl)ccc1Cl)B(O)O [MLN2238]: Not met
- CCc1cncnc1N1CCN(Cc2nc3ccc(C(F)(F)F)cc3[nH]2)CC1 [PF-4708671]: Met
- C=CCc1cccc(/C=N/NC(=O)CN2CCN(Cc3ccccc3)CC2)c1O [PAC-1]: Met
- Cn1cnc2c(F)c(Nc3ccc(Br)cc3Cl)c(C(=O)NOCCO)cc21 [Selumetinib (AZD6244)]: Not met
- CCN(CC)CCCC(C)Nc1nc(C)cc(Nc2ccc3nc(C)cc(N)c3c2)n1 (stereo not drawn) [NSC 23766]: Not met
- Nc1cccc2c1C(=O)N(C1CCC(=O)NC1=O)C2=O (stereo not drawn) [Pomalidomide]: Not met
- NC(=O)c1ccc(-c2nc(-c3ccccn3)c(-c3ccc4c(c3)OCO4)[nH]2)cc1 [SB431542]: Met

src = patent US20220323406A1
